Below, each of the variants is paired with its reported self-cleavage kobs at 2500 uM GlcN6P value.
B1: glmS ribozyme (parent)
chain: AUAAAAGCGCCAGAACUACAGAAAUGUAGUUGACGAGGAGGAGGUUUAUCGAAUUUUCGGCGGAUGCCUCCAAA

Variants of: B1
assay info: self-cleavage kobs at 2500 uM GlcN6P; higher = faster cleavage; RNA array
details: with glucosamine-6-phosphate
This sample holds only a part of the variants without activity.

{"sequence change": "A14G A36G C58G", "censoring qualifier": "<", "self-cleavage kobs at 2500 uM GlcN6P, s⁻¹": "1e-05"}
{"sequence change": "G7U A52G G60C C67G", "censoring qualifier": "<", "self-cleavage kobs at 2500 uM GlcN6P, s⁻¹": "1e-05"}
{"sequence change": "A36G G40A G44A U46G G51C", "censoring qualifier": "<", "self-cleavage kobs at 2500 uM GlcN6P, s⁻¹": "1e-05"}
{"sequence change": "C10A A48C A64U", "censoring qualifier": "<", "self-cleavage kobs at 2500 uM GlcN6P, s⁻¹": "1e-05"}
{"sequence change": "G29C G41C G60A", "censoring qualifier": "<", "self-cleavage kobs at 2500 uM GlcN6P, s⁻¹": "1e-05"}
{"sequence change": "G41U G44U U45C", "censoring qualifier": "<", "self-cleavage kobs at 2500 uM GlcN6P, s⁻¹": "1e-05"}
{"sequence change": "U31A A48G G59A", "censoring qualifier": "=", "self-cleavage kobs at 2500 uM GlcN6P, s⁻¹": 0.000108}
{"sequence change": "U31C G32A U65G", "censoring qualifier": "=", "self-cleavage kobs at 2500 uM GlcN6P, s⁻¹": 0.000133}
{"sequence change": "A14U U30G G41U", "censoring qualifier": "=", "self-cleavage kobs at 2500 uM GlcN6P, s⁻¹": 0.000233}
{"sequence change": "U54A G66A", "censoring qualifier": "=", "self-cleavage kobs at 2500 uM GlcN6P, s⁻¹": 0.00986}
{"sequence change": "G40U U47G U54C", "censoring qualifier": "=", "self-cleavage kobs at 2500 uM GlcN6P, s⁻¹": 0.00079}
{"sequence change": "A42U U55A", "censoring qualifier": "=", "self-cleavage kobs at 2500 uM GlcN6P, s⁻¹": 0.000143}
{"sequence change": "A14C G35U", "censoring qualifier": "<", "self-cleavage kobs at 2500 uM GlcN6P, s⁻¹": "1e-05"}
{"sequence change": "G7U G62U", "censoring qualifier": "<", "self-cleavage kobs at 2500 uM GlcN6P, s⁻¹": "1e-05"}
{"sequence change": "A14G C70U C71G", "censoring qualifier": "=", "self-cleavage kobs at 2500 uM GlcN6P, s⁻¹": 0.00039}
{"sequence change": "A15U U55G C58U C70G", "censoring qualifier": "=", "self-cleavage kobs at 2500 uM GlcN6P, s⁻¹": "6.29e-05"}
{"sequence change": "G35C C71A", "censoring qualifier": "<", "self-cleavage kobs at 2500 uM GlcN6P, s⁻¹": "1e-05"}
